The following compounds are shown together with reported melting point values.
Mention the unit after the number when you answer.

# query: melting point of entry C[C@@H]1CC[C@@H](C)S1 -89 °C

Need melting point of CC(=O)c1ccco1 , thanks. 33 °C

Fill in the blank: the reported melting point of CNC(=O)C(C)SCCSP(=O)(OC)OC (stereo not given) is ____. 43 °C

Return reported melting point; argument: C=COCC -116 °C

Recorded melting point for Oc1ccc2ccccc2c1/N=N/c1ccc(/N=N\c2ccccc2)cc1 , please? 195 °C

Given CSC(=O)c1c(C(F)F)nc(C(F)(F)F)c(C(=O)SC)c1CC(C)C , state its recorded melting point. 65 °C

Returns the measured melting point for the input compound. Input: c1ccc(Nc2cccc3ccccc23)cc1 62 °C

# melting point lookup, item CC(C)=O -96.5 °C

Which melting point is listed for OCCSSCCO ? 26 °C

Quick one: melting point of c1ccc2c(c1)c1ccccc1c1ccccc21 ? 199 °C

New cases:
So what's the measured melting point for this one? CC1=C(/C=C/C(C)=C/C=C/C(C)=C/C=O)C(C)(C)CC=C1 77.5 °C

// query melting point value for entry CCC(C)C(C(=O)OCC[N+](C)(CC)CC)c1ccccc1.[Br-] (stereo not given) 102 °C

Would you kindly share the measured melting point for O=C1CCCO1 ? -43.3 °C

Item c1ccc(N=Nc2ccccc2)cc1 has what recorded melting point? 68.2 °C

Consider the compound shown here: O=[N+]([O-])c1cccc2c([N+](=O)[O-])cccc12 What is its recorded melting point? 219 °C

###

ASSAY_READOUT: boiling point (°C)
// return numeric value only (unit: °C, not printed)

Need boiling point, item CCCC(=O)N(C)C 186

Which measured boiling point value corresponds to COC(CBr)OC ? 149

Need boiling point of COC(=O)c1c(Cl)c(Cl)c(C(=O)OC)c(Cl)c1Cl , thanks. 365

Bench note: what boiling point did c1ccc(C2CCCC2)cc1 show? 219

Which boiling point is listed for BrCCCCCCCBr ? 263

# boiling point lookup, item CCC(C)ON=O (configuration not stated) 68.5

Continuing:
boiling point lookup needed for CCC(S)CC , thanks. 105

Field request: boiling point | item: Fc1cc(F)nc(F)c1 94.5

Reported boiling point, compound CCS(=O)(=O)Cl : ____ 174

Param item = Cc1ccco1 ; retrieve measured boiling point. 65

Which measured boiling point value corresponds to CCOC(=O)c1cccc(Cl)c1O ? 270

Endpoint output: boiling point of Cc1cccc2c1CCCC2 . Value? 234

Requested read-out: boiling point. Entry: Cc1ccccc1[N+](=O)[O-] 222

Would you mind telling me what boiling point value was observed for COCCN(C(=O)CCl)c1c(C)cccc1C ? 320

Which boiling point value belongs to C=C(C)C(=O)OCCOCCOCCOCCOC(=O)C(=C)C ? 220

So what's the measured boiling point for this one? CCCCCCBr 155

Quick check: boiling point of CC(C)CN1CCOCC1 ? 181

###

Reported melting point values for a set of molecules
Write the number in °C without appending the unit.

Solved cases (3 shown):
Which melting point value belongs to C=CCc1cc(OC)c(OC)c(OC)c1OC ? 25

// returns reported melting point for input C=CC1CNC(=S)O1 (stereo not drawn) 50

Consider the molecule shown here: CC(C)C(C)C(C)C What is its recorded melting point? -109

---
I am curious: what melting point value has been reported for OC[C@@H](O)[C@H](O)[C@@H](O)CO ? 98.8

Reported melting point for CSC : what is it? -98.3

Item COC1CCC=CO1 (stereo not drawn) has what recorded melting point? 16

Record request: melting point value, item O=C(O)C(Cl)Br (racemic) 31.5

Please give the measured melting point for this molecule: Cc1c(C)c([N+](=O)[O-])c(C)c(C)c1[N+](=O)[O-] 212

###

Reported log10 Koc (L/kg) values for the following compounds.
Format: numeric value only, no unit, no commentary.

Reported log10 Koc (L/kg), compound CCC(C)(CC)c1cc(NC(=O)c2c(OC)cccc2OC)on1 : ____ 2.4

Entry Cc1[nH]c(=O)n(C(C)C)c(=O)c1Br : reported log10 Koc (L/kg) = ? 2.11

What log10 Koc (L/kg) value was documented for this compound, CON(C)C(=O)Nc1ccc(Cl)c(Cl)c1 ? 2.7

Would you mind telling me what log10 Koc (L/kg) value was observed for COC(=O)Nc1ccc(Cl)c(Cl)c1 ? 2.74

Give the measured log10 Koc (L/kg) of COc1ccc(C(O)(c2cncnc2)C2CC2)cc1 (configuration not stated) . 2.08

Next:
Looking for the measured log10 Koc (L/kg) of COCC(C)OC(C)=O (configuration not stated) , can you help? 0.36

Would you kindly share the measured log10 Koc (L/kg) for NC(=S)c1c(Cl)cccc1Cl ? 2.26

###

ASSAY_READOUT: log10 vapour pressure (mmHg)

Name the recorded log10 vapour pressure (mmHg) for CC(O)CNC1CCCCC1 (centres undefined) . -1.8

# lookup: log10 vapour pressure (mmHg) of CC(C)CCO 0.375

Bench note: what log10 vapour pressure (mmHg) did CC(C)(C)c1ccc(CCOc2ncnc3ccccc23)cc1 show? -7.59

Fill in the blank: the reported log10 vapour pressure (mmHg) of C=C=CC is ____. 3.1

Now for a further molecule.
Any idea what its log10 vapour pressure (mmHg) is? The molecule is O=C1C=CC(=O)C=C1 -1.05

###

ASSAY_READOUT: melting point

What value of melting point has been recorded for this entry: Nc1cnc2ccccc2c1 91.5 °C

Using the record for CCCCCCCC/C=C\CCCCCCCCCCCC(N)=O , report its melting point. 77.5 °C

Entry O=C(O)c1cccs1 has what melting point? 130 °C

Can you share its melting point? I mean this compound: CCCCCCCCCCCCC -5.3 °C

Entry [O-][n+]1onc2ccccc21 has what melting point? 70 °C

Now, please, on to the next compound.
Reported melting point for CC=C1CCCC1 : what is it? -130 °C

###

# boiling point annotations
Express the result in °C but write the number alone.

Any idea what its boiling point is? The compound is CCCC(CC)C(C)(C)C (centres undefined) 156

Requested field: boiling point. Item: c1ccc(-c2ccncc2)cc1 281

Which boiling point reading was recorded for the compound C[Si](C)(C)O[Si](C)(C)O[Si](C)(C)O[Si](C)(C)C ? 194

Endpoint output: boiling point of CC(C)(C)Br . Value? 73.3

Continuing:
Give its boiling point value. Item: O=Cc1ccccc1Br 230

What boiling point value was documented for this compound, c1cn[nH]n1 ? 204

Request the reported boiling point associated with ClC1CCCCC1 142

# query: boiling point of entry CCCCCCC(=O)c1ccccc1 283

Data request, read-out boiling point, for C1CC2OC2CC1C1CO1 (centres undefined) 227

###

ASSAY_READOUT: log10 Koc (L/kg)
Format: numeric value only, no unit, no commentary.

Answered examples (4):
Name the reported log10 Koc (L/kg) value associated with the molecule CCCOC(=O)Nc1ccccc1 2.06

For COC(=O)c1cccc(C)c1S(=O)(=O)NC(=O)Nc1nc(OCC(F)(F)F)nc(N(C)C)n1 , what is its reported log10 Koc (L/kg)? 1.84

Tell me the measured log10 Koc (L/kg) of ClC=C(Cl)Cl , please. 2

Please look up its log10 Koc (L/kg): CCCCCCCCCCO 2.59

Continuing:
Would you kindly share the measured log10 Koc (L/kg) for CCNc1nc(NC(C)C)nc(OC)n1 ? 2.64

###

A collection of molecules and their measured melting point
Number in °C, nothing else.

Known melting point results, listed for orientation:
Entry Nc1ccc([N+](=O)[O-])cc1C(=O)c1ccccc1 has what melting point? 163

So what's the measured melting point for this one? C=CCI -99.3

Field request: melting point | item: CC(C)CNC(=O)N1CCNC1=O 95.5

Request the reported melting point associated with CCCCOC(=O)C(=O)OCCCC -30.5

More entries:
What measured melting point goes with CC12CCC(CC1=O)C2(C)C (stereo not drawn) ? 179

Look at this molecule and give its reported melting point. Nc1nnc(-c2ccc([N+](=O)[O-])o2)s1 280

Dear colleague, I am looking for the recorded melting point of the following molecule: O=C(OOC(=O)c1ccc(Cl)cc1Cl)c1ccc(Cl)cc1Cl 106

Look up melting point: CC(=O)[C@@]1(C)CC[C@H]2[C@@H]3CCC4=CC(=O)CCC4=C3CC[C@@]21C 106

Consider the molecule CC(C)CI and give its measured melting point. -93

Any idea what its melting point is? The molecule is CCCCCCCCC1CCCCC1 -20

###

The reader will find reported melting point values listed item by item below.
Quick reminder: number only, in °C, skip the unit.

In the examples that follow, each entry is paired with its recorded melting point.
Consider the compound shown here: CCCCCCCCCCC(Br)C(=O)O (stereo not drawn) What is its recorded melting point? 32

Query (compound): CC1(C)C(C=C(Cl)Cl)C1C(=O)OC(C#N)c1ccc(F)c(Oc2ccccc2)c1 (stereo not drawn) ; field requested: melting point 60

Look up melting point for this compound: CC(=O)[O-].[Na+] 324

For the compound shown here, c1ccc(-c2ccc3ncccc3c2)cc1 , give the reported melting point. 110

Would you mind telling me what melting point value was observed for COc1cc(OC)nc(N=C(O)NS(=O)(=O)N(C)S(C)(=O)=O)n1 ? 162

New cases:
Quick check: melting point of c1ccc(-c2cccc(-c3ccccc3)c2)cc1 ? 87

Record request: melting point value, item CC(C)(CO)[N+](=O)[O-] 89.5
